# STUDY SYSTEM: Proto-oncogene tyrosine-protein kinase receptor Ret (Homo sapiens) (UniProt P07949);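 also: reported figure is the mean of RET inhibition measurements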
# Sequence (P07949 whole entry): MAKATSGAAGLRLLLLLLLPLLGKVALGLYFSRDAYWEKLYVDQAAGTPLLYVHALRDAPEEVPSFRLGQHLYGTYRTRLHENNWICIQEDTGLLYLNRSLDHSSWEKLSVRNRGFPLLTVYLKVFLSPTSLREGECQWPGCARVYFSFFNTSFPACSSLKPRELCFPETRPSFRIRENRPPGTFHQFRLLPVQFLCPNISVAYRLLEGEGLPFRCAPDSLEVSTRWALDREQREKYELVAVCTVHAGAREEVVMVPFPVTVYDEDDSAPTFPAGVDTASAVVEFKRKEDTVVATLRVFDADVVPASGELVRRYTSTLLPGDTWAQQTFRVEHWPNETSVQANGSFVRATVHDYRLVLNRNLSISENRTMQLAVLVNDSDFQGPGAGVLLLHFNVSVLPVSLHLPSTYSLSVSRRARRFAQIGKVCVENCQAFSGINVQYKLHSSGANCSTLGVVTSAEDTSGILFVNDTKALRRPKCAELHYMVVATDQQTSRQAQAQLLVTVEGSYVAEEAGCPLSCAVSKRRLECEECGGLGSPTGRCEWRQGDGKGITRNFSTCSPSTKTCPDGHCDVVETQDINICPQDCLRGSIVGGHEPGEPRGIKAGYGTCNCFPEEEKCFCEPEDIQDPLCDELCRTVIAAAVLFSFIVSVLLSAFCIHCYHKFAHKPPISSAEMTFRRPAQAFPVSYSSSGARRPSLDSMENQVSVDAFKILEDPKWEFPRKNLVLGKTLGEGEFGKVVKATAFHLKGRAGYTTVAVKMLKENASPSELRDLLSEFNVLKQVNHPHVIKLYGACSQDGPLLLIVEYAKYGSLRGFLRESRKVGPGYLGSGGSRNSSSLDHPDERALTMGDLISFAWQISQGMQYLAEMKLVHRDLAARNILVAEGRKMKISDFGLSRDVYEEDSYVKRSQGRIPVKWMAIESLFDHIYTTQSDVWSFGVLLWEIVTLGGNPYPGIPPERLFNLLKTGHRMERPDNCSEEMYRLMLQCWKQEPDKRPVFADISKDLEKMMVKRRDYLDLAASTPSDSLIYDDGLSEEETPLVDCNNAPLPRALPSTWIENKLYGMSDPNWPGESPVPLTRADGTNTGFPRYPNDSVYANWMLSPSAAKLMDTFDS
# CONDITION PARAMETERS: at 0.1 µM
OBSERVED PROPERTY: inhibition (%)

[
  {
    "COMPOUND": "NC(=O)c1ccc(-c2nc(-c3ccccn3)c(-c3ccc4c(c3)OCO4)[nH]2)cc1",
    "UNITS": "%",
    "REPORTED": 6.29
  },
  {
    "COMPOUND": "CC1=C(C(=O)Nc2ccc3[nH]ncc3c2)C(c2ccc(Cl)c(Cl)c2)CC(=O)N1 (stereo not given)",
    "UNITS": "%",
    "REPORTED": 5.65
  },
  {
    "COMPOUND": "CCc1cccc(NC(=O)Nc2ccc(Oc3ccc4nc(NC(=O)OC)[nH]c4c3)cc2)c1",
    "UNITS": "%",
    "REPORTED": 72.8
  },
  {
    "COMPOUND": "Cc1cc(O)cc(C)c1/C=C/c1cncc(-c2nn[nH]n2)c1",
    "UNITS": "%",
    "REPORTED": 1.14
  },
  {
    "COMPOUND": "COc1cccc(-n2ncc3c(N/N=C/c4cccc(F)c4)ncnc32)c1",
    "UNITS": "%",
    "REPORTED": 2.64
  },
  {
    "COMPOUND": "Cc1cccc(-c2n[nH]cc2-c2ccc3ncccc3n2)n1",
    "UNITS": "%",
    "REPORTED": 1.65
  },
  {
    "COMPOUND": "CN1CCC(C(=O)Nc2n[nH]c3nnc(-c4ccccc4)cc23)CC1",
    "UNITS": "%",
    "REPORTED": 1.29
  },
  {
    "COMPOUND": "CN(C)c1cc2c(Nc3ccc4nc(Cc5ccccc5)[nH]c4c3)ncnc2cn1",
    "UNITS": "%",
    "REPORTED": 7.21
  },
  {
    "COMPOUND": "Nc1ncnc2occ(-c3ccc(NC(=O)Nc4cc(C(F)(F)F)cc(C(F)(F)F)c4)cc3)c12",
    "UNITS": "%",
    "REPORTED": 76.4
  },
  {
    "COMPOUND": "COc1cc2ncn(-c3cc(O[C@H](C)c4ccccc4Cl)c(C(N)=O)s3)c2cc1OC",
    "UNITS": "%",
    "REPORTED": 18.2
  }
]
